System: duck salad (Heteranthera limosa)
protocol-summary: Test B flood test
Type: in vivo
condition-description: Rate 500 g/ha, Postemergence (flood test species)
Method: At the same time, these crop and weed species were also treated with postemergence applications of test chemicals formulated in the same manner. Plants ranged in height from 2 to 18 cm (1- to 4-leaf stage) for postemergence treatments. […] Treated plants and controls were maintained in a greenhouse for twelve to sixteen days, after which all species were compared to controls and visually evaluated. […]

{"columns": ["smiles-input", "Plant response rating, Ducksalad"],
 "data": [
  ["Cc1cnc(-c2ccc(C(F)(F)F)cc2)nc1Cn1ccc(C(F)(F)C(F)(F)F)n1", 3],
  ["Cc1cnc(-n2ccc(C(F)(F)F)n2)nc1C(=O)c1cccc(OC(F)(F)F)c1", 7],
  ["Cc1cnc(-n2ccc(C(F)(F)F)n2)nc1C(=O)c1ccc(C(F)(F)F)cc1", 0],
  ["Cc1cnc(-n2ccc(C(F)(F)F)n2)nc1C(=O)c1cccc(C(F)(F)F)c1", 7]
]}
